target: human PDHK3 (hPDHK3, pyruvate dehydrogenase kinase 3) (Homo sapiens, UniProt Q15120); construct: gene PDK3; recombinant, Flag-tag at the N-terminus; with PDH enzyme derived from porcine heart (PDH/PDHK complex); experiment: PDH-coupled PDHK assay (residual PDH activity, NADH absorbance at […] nm), […] ATP; assay type: biochemical
Sequence (Q15120 whole entry): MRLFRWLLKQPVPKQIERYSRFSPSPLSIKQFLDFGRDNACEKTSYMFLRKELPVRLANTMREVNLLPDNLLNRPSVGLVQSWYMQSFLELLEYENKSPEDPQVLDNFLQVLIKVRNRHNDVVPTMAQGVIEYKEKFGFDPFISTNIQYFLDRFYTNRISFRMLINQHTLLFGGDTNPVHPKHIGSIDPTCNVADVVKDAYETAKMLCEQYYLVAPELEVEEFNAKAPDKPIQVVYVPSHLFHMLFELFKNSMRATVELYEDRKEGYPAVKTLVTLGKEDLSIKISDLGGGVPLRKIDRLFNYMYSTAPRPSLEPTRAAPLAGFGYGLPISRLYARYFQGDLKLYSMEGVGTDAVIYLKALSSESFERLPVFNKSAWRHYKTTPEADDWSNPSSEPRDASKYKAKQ
Recorded metric: IC50 (nM)

Mol smiles | Data value
C[C@H]1CN(C(=O)c2c(F)cc(C#N)cc2F)Cc2cnc([C@@](C)(O)C(F)(F)F)n21 | 50.5

====

biological target: human PDHK2 (hPDHK2, pyruvate dehydrogenase kinase 2) (Homo sapiens, UniProt Q15119); construct: recombinant, Flag-tag at the N-terminus; with PDH enzyme derived from porcine heart (PDH/PDHK complex); assay: PDH-coupled PDHK assay (residual PDH activity, NADH absorbance at […] nm), […] ATP
pIC50: −log10 of the molar value.

Mol smiles | pIC50
C[C@H]1CN(C(=O)c2c(F)cc(C#N)cc2F)Cc2cnc([C@@](C)(O)C(F)(F)F)n21 | 8.27

Values from paper PMC11376040
